Cited source for all entries: the supplement of paper PMC9170038

Here, each record is paired with measured apparent KD of K4 kissing-loop reporter data.
test system: K4 kissing-loop RNA reporter; assay: apparent KD of K4 kissing-loop reporter; higher = weaker reporter binding; conditions: Eterna round: R107; input ligand: arginine 13.2 mM;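 also: bound reporter read as fluorescence of individual clusters on recovered sequencing chips by microscopy, with normalized cluster intensities fitted with a binding model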
// units = nM; emit number, no label

>>> result("GUGAAGGAGCAGCAGUGAUGUUGCUGAGACUAGGAUAUCAGGAAACUGAGAAGGAGUCAACUCCUUCACCUAGACUGCAACAUAA [KL-SSFMN-A13]")
167

Measured apparent KD of K4 kissing-loop reporter for this entry AGUAAUCUCACGGCCGCCACUGUUUAUUGUUUUUAUAGUUAUAAAUCUUGCCAGUGAUGUUGGUACAGGACCGGGUGAGUUAAUA [#25 K4 Tryptophan B Same State] on K4 kissing-loop RNA reporter: 360

Measured apparent KD of K4 kissing-loop reporter for this entry AUGCGCGCGGCGGCCGCCACUCGCAUGAGAGUGAUGUUCUCGCCGGGCCCGGAAGGGCCCGGUGUGAGGACCGGGCCGGGCUGCG [#2 Same State - Tryptophan B Attempt #17 (HarryS)] on K4 kissing-loop RNA reporter: 73.2

Measured apparent KD of K4 kissing-loop reporter for this entry UACUAUAGUGAUGUUAUAGAUAAAACAGAUACCAGUGUUACAUAACACCCUUGGCAGCUGAAAAGGGAAAGUAUAAAUGUGUAUU [AstrosSSTHe-A#1newdesignED] on K4 kissing-loop RNA reporter: 127

Measured apparent KD of K4 kissing-loop reporter for this entry UGACUGGACUGAAGGAGCGAGGACGGUCAUAGACCGAAUUCAGUGAUGUUGAAAAUAAAACCUCAGGUAGGUCGCAGUCUAGUCU [ArgBS 3 #SwitchBubble #StaticStem] on K4 kissing-loop RNA reporter: 193

Measured apparent KD of K4 kissing-loop reporter for this entry CUGGGUUGACGAAAAGUCAACAAAAGAGAAGGAGCGCACGAAAGUGCAGGUAGGUCGCUCAAUCCAGUGAUGUUGGGUCGUCCAG [#OpenEnded 11 #K4Late] on K4 kissing-loop RNA reporter: 192

Measured apparent KD of K4 kissing-loop reporter for this entry GGCGAUGAGUGAUGUUCAAAGAAUAAUGAUACCAGCUGAUGUCGAAGCCCUUGGCAGCAUAGAUACACCAAGUGAUGGUAAUGCC [Default title] on K4 kissing-loop RNA reporter: 209

Measured apparent KD of K4 kissing-loop reporter for this entry CCGCCGGUCGGAAGGAGCGCACGCCAGAGUGAUGUUCUGGCGCGGGCAUUUUGUGCCCGCGUGCAGGUAGGUCGCCGAUUCUGGC [Quxeorti] on K4 kissing-loop RNA reporter: 414

Measured apparent KD of K4 kissing-loop reporter for this entry CAUACGCAUGGAGGAUAUGAGAUUUUUCAUAUUACUUUUUAUUCUCAGUGAUGUUGGGAUUUGUAAUCAGAAGGCCAUGUGUAUG [#10 K4 FMN B Exclusion] on K4 kissing-loop RNA reporter: 93.2

Measured apparent KD of K4 kissing-loop reporter for this entry UGUCAUUGGUCGGCCGCCACUAGGACCGGGAUUUUUCUAGUGAUGUUAGUUUGGUCGGCCGCCACUAGGACCGGGACCGAUGACU [KL-SSTryp-B13 #DoubleAptamer] on K4 kissing-loop RNA reporter: 345

###

system: MS2 coat protein; assay: apparent KD of MS2 coat protein; designed switch direction (-1 OFF switch, 1 ON switch): -1; higher = weaker reporter binding; details: Eterna round: R95; input ligand: none
# binarize apparent KD of MS2 coat protein: threshold 60 nM inclusive, high side 1.0, low side 0.0

Solved entries (count: 5):
>>> category("UAGGUACAUGAGGAUCACCCAUGUGAGGAUAUAGUUGAAGAUUGCGAGAGGUUGAGGACUAGAAGGCACAGUGG [JR_Exclu1_Sub038] (puzzle: Exclusion 1)")
1.0
>>> category("AAUACAAGCAAGAUCCUAAACAUGAGGAUCACCCAUGUGCUCGUCUUAUAAAGUACUAUCACGAAAGUGAUAGUACA [Sensor 3, v1 - 63] (puzzle: Sensor v3, turn-off variant 1)")
1.0
>>> category("AAAGAAGAGAGAAAAUAACACAUGAGGAUCACCCAUGUGAGAUGUUGAGGGUGAUACAGGCUUUUUGCUCGUCUUAU (puzzle: Sensor v3, turn-off variant 1)")
1.0
>>> category("AGAAGACAUGAGGAUCACCCAUGUAAGGAUAUUGGAGGUUAGGGAUGCUGGAGUUGGGCAAGAAGGUACAGGUG [JR_Exclu1_Sub092] (puzzle: Exclusion 1)")
1.0
>>> category("AGUACUAACACGAAAGUGUUAGUACAAUAAGCUAGUGGAACAUGAGGAUCACCCAUGUCCUCAUUAGCUCGUCUUGG [Mat - Sensor v3 - Turn-off var 2 - D40] (puzzle: Sensor v3, turn-off variant 2)")
0.0

*Q* Does GAAAAGGUAGGAUAUACGAGAAAAAAGGGUAGAAAAAAAACACAUGAGGAUCACCCAUGUAGAAGGACCAAAAG [salish99_ex2_r3_029] (puzzle: Exclusion 2) have a reported apparent KD of MS2 coat protein of at least 60 nM?
*A* 0.0

*Q* Does CAGCCUUGAGUUAGGAUAUGCGAUCGUGUAGACGAGCAGAAGGGACAUGAGGAUCACCCAUGUGAAAUAAUUAA [Begeti] (puzzle: Brourd's mod of Exclusion 4) have a reported apparent KD of MS2 coat protein of at least 60 nM?
*A* 0.0

*Q* Does AUGAAGUAAGGAUAUACAUGAGGAUCACCCAUGUAAAGAAAAGUAAUGGGAGUAAGAAGUAGAAGGUACGAGAA [JR_Exclu3_Sub061] (puzzle: Exclusion 3) have a reported apparent KD of MS2 coat protein of at least 60 nM?
*A* 0.0

*Q* Does GGGAAACAUGAGGAUCACCCAUGUGAGGAUAUGAAAAAGAAAAGAAAAGAAAGAAGAAUCAGAAGGCACAAAGG [salish99-ex1_r3_079] (puzzle: Exclusion 1) have a reported apparent KD of MS2 coat protein of at least 60 nM?
*A* 0.0

*Q* Does CAGAAACAUGAGGAUCACCCAUGUGAGGAUAUGAAAAAGAAAAGAAAAGAAAGAAGAAUCAGAAGGCACAAAGG [salish99-ex1_r3_081] (puzzle: Exclusion 1) have a reported apparent KD of MS2 coat protein of at least 60 nM?
*A* 0.0
